src = paper PMC10298530

For each record, write down the corresponding IC50.
Test system: HEpG2
test: MTT cell viability assay, HEpG2
Format: cell-based, human
runConditions: Homo sapiens; HEpG2, MTT, 72 h of treatment; read-out: IC50 Values (Mean ± SD)
The reply should be a number in µM, with the unit left off.

Data request: I would be grateful if you could share the reported IC50 for COc1cccc2c1C(=O)c1c(O)c3c(c(O)c1C2=O)C[C@@](O)(C(=O)CO)C[C@@H]3O[C@H]1C[C@H](N)[C@H](O)[C@H](C)O1 [Dox, doxorubicin, reference compound] .
Data returned: 1.8

Data request: I would be grateful if you could share the reported IC50 for COC(=O)[C@]12CCC(C(C)C)C1C1CCC3[C@@](C)(CCC#N)C(C(=O)CBr)CC[C@@]3(C)[C@]1(C)CC2 (stereo partly drawn) [compound 30] .
Data returned: 49.6

Data request: I would be grateful if you could share the reported IC50 for COC(=O)[C@]12CCC(C(C)C)C1C1CCC3[C@@]4(C)C[C@@H](C#N)C[C@H](O)C4CC[C@@]3(C)[C@]1(C)CC2 (stereo partly drawn) [compound 19] .
Data returned: 31.8

Data request: I would be grateful if you could share the reported IC50 for COC(=O)[C@]12CC[C@@H](C(C)C)[C@@H]1[C@H]1CC[C@@H]3[C@@](C)(CCC#N)[C@H](C(=O)C(Br)Br)CC[C@@]3(C)[C@]1(C)CC2 [compound 31] .
Data returned: 16.6

###

For each record, write down the corresponding melting point.
The reply should be a number in °C, with the unit left off.

Data request: I would be grateful if you could share the reported melting point for COC(=O)[C@]12CCC(C(C)C)C1C1CCC3[C@@]4(C)C[C@@H](C#N)CC(=O)C4CC[C@@]3(C)[C@]1(C)CC2 (some centres unmarked) .
Data returned: 220.8

Data request: I would be grateful if you could share the reported melting point for COC(=O)[C@]12CCC(C(C)C)C1C1CCC3[C@@]4(C)CC(C#N)=CC(=O)C4CC[C@@]3(C)[C@]1(C)CC2 (some centres unmarked) .
Data returned: 69.7

Data request: I would be grateful if you could share the reported melting point for CC1=C(C#N)C[C@@]2(C)C1CC[C@]1(C)C2CCC2C3C(C(C)C)CC[C@]3(CO)CC[C@]21C (some centres unmarked) .
Data returned: 184.2

Data request: I would be grateful if you could share the reported melting point for C=C1C2CC[C@]3(C)C(CCC4C5C(C(C)C)CC[C@]5(CO)CC[C@]43C)[C@@]2(C)C[C@@H](C#N)[C@@H]1O (some centres unmarked) .
Data returned: 170.1

Data request: I would be grateful if you could share the reported melting point for C=C(C=O)C1CC[C@]2(C)C(CCC3C4C(C(C)C)CC[C@]4(C(=O)OC)CC[C@]32C)[C@@]1(C)CCC#N (some centres unmarked) .
Data returned: 97.3

Data request: I would be grateful if you could share the reported melting point for CC(C)C1CC[C@]2(COC(=O)c3ccccc3)CC[C@]3(C)C(CCC4[C@@](C)(CCC#N)C(C(=O)CBr)CC[C@]43C)C12 (some centres unmarked) .
Data returned: 91.6

Data request: I would be grateful if you could share the reported melting point for COC(=O)[C@]12CCC(C(C)C)C1C1CCC3[C@@]4(C)C[C@@H](C#N)C[C@H](O)C4CC[C@@]3(C)[C@]1(C)CC2 (some centres unmarked) .
Data returned: 189.7

Data request: I would be grateful if you could share the reported melting point for C=C1C=C(C#N)C[C@@]2(C)C1CC[C@]1(C)C2CCC2C3C(C(C)C)CC[C@]3(CO)CC[C@]21C (some centres unmarked) .
Data returned: 196.1
